Reported values of MIC-E. coli (μM) 25922 for individual entries
Test system: E. coli ATCC 25922
Conditions: Table 6
Ends that are not written are not given here.

- Sequence: "KKLIKKILKILGPGRKKLIKEILKILGPGRKKLIKKILKIL [Peptide 41P1]"
  Result Operator: "="
  MIC-E. coli (μM) 25922 (µM): 4.50
- Sequence: "KLIRLIREILRRGPGRRRLIREILRILK [Peptide 28P6]"
  Result Operator: "="
  MIC-E. coli (μM) 25922 (µM): 4.8
- Sequence: "LIKLIKKILKKGPGRKKLIKKILKIL [Peptide P26]"
  Result Operator: "="
  MIC-E. coli (μM) 25922 (µM): 1.7
- Sequence: "KEIVRRIEKFLRGPGRKRIVERIEKFLR [Peptide 28P8]"
  Result Operator: "="
  MIC-E. coli (μM) 25922 (µM): 0.8
- Sequence: "KEIVRRIKEFLRGPGRKEIVRRIKEFLR [Peptide 28P7]"
  Result Operator: "="
  MIC-E. coli (μM) 25922 (µM): 4.3
- Sequence: "RLLEKRLRRELERELRKQGPGRRLLEKRLRRELERELRKQ [Peptide 40P2]"
  Result Operator: ">"
  MIC-E. coli (μM) 25922 (µM): 20
- Sequence: "KRLIQRKRLIQRGPGRKRLIQRKRLIQR [Peptide 28P3]"
  Result Operator: ">"
  MIC-E. coli (μM) 25922 (µM): 40
- Sequence: "EALRSRLEKRIYILYRDTPVVKSSSRQREELLRISLRELE [Peptide 40P1]"
  Result Operator: ">"
  MIC-E. coli (μM) 25922 (µM): 20
- Sequence: "RKQLRELIERLLERIRKLGPGRREQLERLIERLERLIEKR [Peptide 40P3]"
  Result Operator: ">"
  MIC-E. coli (μM) 25922 (µM): 20
- Sequence: "KLIKLIKKILKKGPGRKKLIKKILKILK [Peptide 28P4]"
  Result Operator: "="
  MIC-E. coli (μM) 25922 (µM): 2.1

----------
Test system: E. coli ATCC 25922
Details: Table 6
Ends that are not written are not given here.
Reported values of MIC-E. coli (μM) 25922 for individual entries

- Sequence: "LIRLIRRILRRGPGRRRLIRRILRIL [Peptide 26P2]"
  Subject Of Test: "E. coli ATCC 25922"
  MIC-E. coli (μM) 25922: "1.3 to 2.5 µM"
- Sequence: "ELLRRLLASLRRHDLLRGPGRELLRLLASLRRHDLLR [Peptide 38P1]"
  Subject Of Test: "E. coli ATCC 25922"
  MIC-E. coli (μM) 25922: "2.5 to 5 µM"
- Sequence: "KRIVQRIKDFLRGPGRKRIVQRIKDFLR [Peptide 28P2]"
  Subject Of Test: "E. coli ATCC 25922"
  MIC-E. coli (μM) 25922: "6 (2) μM"
- Sequence: "HPLIKLIKKILKKGPGRKKLIKKILKILGH [Peptide 30P1]"
  Subject Of Test: "E. coli ATCC 25922"
  MIC-E. coli (μM) 25922: "0.9 to 1.25 µM"
